System: FT3469 (normal neural stem cell line);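 further: nuclei counted by high-content imaging of Hoechst-stained cells in laminin-coated 384-well plates, relative to 0.1% DMSO vehicle wells, with staurosporine as cell-death control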
assay overview: surviving fraction (nuclei count normalised to DMSO); higher = more cells surviving (less toxic)
conditions: 1000 nM; exposure time: 72 h
Answer not satisfied if surviving fraction is under 0.7, and satisfied if it is 0.7 or more.

Is surviving fraction at least 0.7? Consider CC(C)(C)C1CCN(C(=O)n2ncc(C(O)(c3ccccc3)c3ccccc3)n2)CC1
satisfied

Moving on to Nc1ncn(C2OC(CO)C(O)C2O)c(=O)n1 (stereo not given)
satisfied

Continue with COc1ccc2[nH]c([S+]([O-])Cc3ncc(C)c(OC)c3C)nc2c1 (stereo not given)
satisfied

// query: C#C[C@]1(O)CC[C@H]2[C@@H]3CCc4cc(OC5CCCC5)ccc4[C@H]3CC[C@@]21C
satisfied

What do you have for CCCCCCNC(=O)n1cc(F)c(=O)[nH]c1=O ?
satisfied

What about this compound? CCn1cc(C(=O)O)c(=O)c2cc(F)c(N3CCNCC3)nc21
satisfied

Ref: the supplement of paper PMC13207355
